observable: logP
No unit in the answer, please; the number alone is enough.

Task item: Report measured logP; entry is C=CC(=O)OCCCCCCCCCOC(=O)C=C [LIGHT ACRYLATE 1,9ND-A, 1,9-nonanediol diacrylate]
Reply: 3.68

###

assay: log P value (octanol/water partition coefficient); conditions: shake flask method JIS Z 7260 or ChemDraw Ultra calculation, not stated which
observable: log P

The following molecules have reported results that may help.
- molecule: "CSc1ccc(C(=O)C(C)(C)N2CCOCC2)cc1 [IRGACURE 907]"
  log P: 2.09
- molecule: "C=CC(=O)OCCCCCCCCCCOC(=O)C=C [1,10-decanediol diacrylate]"
  log P: 4.10
- molecule: "C=CC(=O)OCCN=C=O [Karenz AOI]"
  log P: 1.6

Task item: Return value of log P for input C=CC(=O)OCC(C)OCC(C)OCC(C)OC(=O)C=C (stereo not shown) [TPGDA, tripropylene glycol diacrylate] , no commentary.
Reply: 1.68
